// reported Population Mitochondria Different-Phenotype (%) for each item listed
- Tested on: HEK-293T
- EXPERIMENT NOTES: Multiplex assay against HEK293T
- Format: toxicity, cell-based
- SETUP CONDITIONS: human, 24 h, 1 µM, compound concentration 1 uM, replicate 1
Write it as a number; the unit % goes unstated.

MOLECULE | READOUT VALUE
Cl.Oc1ccc2c3c1O[C@H]1c4[nH]c5c(c4C[C@@]4(O)[C@@H](C2)N(CC2CC2)CC[C@]314)C[C@@]1(O)[C@H]2Cc3ccc(O)c4c3[C@@]1(CCN2CC1CC1)[C@H]5O4 | 61
CN1C2CCC1CC(OC(c1ccc(F)cc1)c1ccc(F)cc1)C2.Cl (configuration not stated) | 76
CCc1cccc(CC)c1NC(=O)c1nn(C)c2c1CCc1cnc(Nc3ccc(N4CCN(C)CC4)cc3OC)nc1-2 | 41
COC(=N)c1nc2ccc3ncnc(Nc4ccc(OC)cc4F)c3c2s1 | 7
Cl.O=C(c1ccc(Nc2nccc(-c3cc4ccccc4s3)n2)cc1)N1CCC(N2CCCC2)CC1 | 9
COc1ccc(S(=O)(=O)N(CCO)c2ccccc2CN(C)C/C=C/c2ccc(Cl)cc2)cc1.O=P(O)(O)O | 81
S=C(NCCCc1c[nH]cn1)NCCCN(Cc1ccc(Cl)c(Cl)c1)c1ccc(Br)cn1 | 73
CNC(=O)c1ccc(Nc2nc(OC3CCCC3)c3c(-c4ccc5nc(C)oc5c4)c[nH]c3n2)c(OC)c1 | 54
CCN1CCN(Cc2ccc(Nc3ncc(F)c(-c4cc(F)c5nc(C)n(C(C)C)c5c4)n3)nc2)CC1.CS(=O)(=O)O | 100
O=C(Nc1ccc(Cl)cc1)Nc1cccc(-c2cccc(N3CCCC3)n2)c1 | 38

Task: Dear colleague, I am looking for the recorded Population Mitochondria Different-Phenotype (%) of the following molecule: "NC(=O)c1cccc(-c2cc(Nc3ccc(OC(F)(F)F)cc3)ncn2)c1"
Output: 3

Task: Field entry: "Cc1cc(C)c(S(=O)(=O)N(Cc2ccc(-c3cccc(S(C)(=O)=O)c3)cc2)Cc2ccc(C(F)(F)F)o2)c(C)c1"
Output: 66

Task: // same read-out, input: "CCn1c(=O)c(-c2ccc(-c3cncs3)cc2Cl)cc2cnc(Nc3ccc(N4CCN(C)CC4)cc3)nc21"
Output: 55

Task: What do you have for "CNc1cc(Oc2cc(C(=O)Nc3cc(N4CCN(C)CC4)cc(C(F)(F)F)c3)ccc2C)ncn1" ?
Output: 96

* * *

- System: Fibroblast
- EXPERIMENT NOTES: Multiplex assay against human fibroblast
- Type: toxicity, cell-based
- SETUP CONDITIONS: 24 h, 1 µM, compound concentration 1 uM, replicate 2
OBSERVABLE: Population Healthy Nuclei (%)
Please reply with the bare figure in % and do not write the unit itself.

Below, 5 molecules whose answers are already recorded.
MOLECULE | STUDY TARGET | READOUT VALUE
COc1ccc(S(=O)(=O)N(CCO)c2ccccc2CN(C)C/C=C/c2ccc(Cl)cc2)cc1.O=P(O)(O)O | Fibroblast | 38
CCOc1cc(C(=O)N2CCC(N3CCN(C)CC3)CC2)ccc1Nc1ncc2c(n1)N(C1CCCC1)c1ccccc1C(=O)N2C | Fibroblast | 72
Cl.Oc1ccc2c3c1O[C@H]1c4[nH]c5c(c4C[C@@]4(O)[C@@H](C2)N(CC2CC2)CC[C@]314)C[C@@]1(O)[C@H]2Cc3ccc(O)c4c3[C@@]1(CCN2CC1CC1)[C@H]5O4 | Fibroblast | 91
Cc1ccc2nc(NCCN)c3ncc(C)n3c2c1.O=C(O)C(F)(F)F.O=C(O)C(F)(F)F | Fibroblast | 27
COc1cccc2cc(-c3nc([C@H]4CC[C@H](C(=O)O)CC4)n4ncnc(N)c34)[nH]c12 | Fibroblast | 22

Task: Name the reported Population Healthy Nuclei (%) value associated with the molecule "CCNc1cc(N[C@H]2CC[C@H](O)CC2)nc(Nc2ccc3c(ccn3Cc3ccccc3)c2)n1"
Output: 40

Task: What do we get for "Cc1cc(C)c(S(=O)(=O)N(Cc2ccc(-c3cccc(S(C)(=O)=O)c3)cc2)Cc2ccc(C(F)(F)F)o2)c(C)c1" ?
Output: 80

Task: Note, next up: "O=C1N/C(=N/c2ccccc2F)S/C1=C\c1ccc(C(=O)O)cc1"
Output: 85

Task: Can you handle CN1C2CCC1CC(OC(c1ccc(F)cc1)c1ccc(F)cc1)C2.Cl (stereo not drawn) next?
Output: 90

Task: Record: "CCc1cccc(CC)c1NC(=O)c1nn(C)c2c1CCc1cnc(Nc3ccc(N4CCN(C)CC4)cc3OC)nc1-2"
Output: 11

Task: Likewise for "O=C(Cc1ccc(-c2ccc(OCCN3CCOCC3)cc2)cn1)NCc1ccccc1" ?
Output: 66

Task: Same question, "CCCn1c(=O)c2[nH]c(-c3cnn(Cc4cccc(C(F)(F)F)c4)c3)nc2n(CC)c1=O" this time
Output: 90

Task: Please do the same for CCOC(=O)c1c(C)[nH]c2ccc3c(c12)CN1CCc2cc(OC)ccc2C1O3 (stereo not drawn) as well.
Output: 75

* * *

compounds and their reported Population Mitochondria Different-Phenotype (%)
- Tested on: HEK-293T
- EXPERIMENT NOTES: Multiplex assay against HEK293T
- Assay type: toxicity, cell-based
- SETUP CONDITIONS: human, 24 h, 1 µM, compound concentration 1 uM, replicate 1
Give the quantity in %, number only.

INPUT SMILES | STUDY TARGET | ENDPOINT UNIT | READOUT VALUE
COc1cccc2cc(-c3nc([C@H]4CC[C@H](C(=O)O)CC4)n4ncnc(N)c34)[nH]c12 | HEK-293T | % | 8
O=C1N/C(=N/c2ccccc2F)S/C1=C\c1ccc(C(=O)O)cc1 | HEK-293T | % | 46
CCN1CCN(c2ccc(Nc3cc(N(C)C(=O)Nc4c(Cl)c(OC)cc(OC)c4Cl)ncn3)cc2)CC1 | HEK-293T | % | 31

// moving on: another record for Population Mitochondria Different-Phenotype (%)
Task: Consider the compound "CCNc1cc(N[C@H]2CC[C@H](O)CC2)nc(Nc2ccc3c(ccn3Cc3ccccc3)c2)n1" and give its measured Population Mitochondria Different-Phenotype (%).
Output: 18

* * *

- System: Fibroblast
- EXPERIMENT NOTES: Multiplex assay against human fibroblast
- Type: toxicity, cell-based
- SETUP CONDITIONS: 12 h, 1 µM, compound concentration 1 uM, replicate 2
OBSERVABLE: Population Normal (%)
Your answer should be a plain number; it is taken to be in %.

COMPOUND | STUDY TARGET | OBSERVABLE | ENDPOINT UNIT | READOUT VALUE
O=C(Nc1ccc(Cl)cc1)Nc1cccc(-c2cccc(N3CCCC3)n2)c1 | Fibroblast | Population Normal (%) | % | 92
O=C(Nc1ccc(-n2nc(-c3cccnc3)cc2C(F)(F)F)cn1)c1ccc(-c2ccccc2)c(F)c1 [BI 2049] | Fibroblast | Population Normal (%) | % | 91
CCOC(=O)c1c(C)[nH]c2ccc3c(c12)CN1CCc2cc(OC)ccc2C1O3 (stereo not drawn) | Fibroblast | Population Normal (%) | % | 90

Task: # Population Normal (%) lookup, item "COc1cc(N2CCN(C)CC2)ccc1Nc1ncc2c(n1)N(C)c1ccccc1C(=O)N2C"
Output: 95

Task: And for COc1ccc(-c2ccc3c(N4CCOCC4)nc(N4C[C@@H](C)O[C@@H](C)C4)nc3n2)cc1CO [Ku-0063794] ?
Output: 64

Task: And what about the compound CN(C)C(=O)C(CCN1CCC(O)(c2ccc(Cl)cc2)CC1)(c1ccccc1)c1ccccc1.Cl [LOPERAMIDE HYDROCHLORIDE] ?
Output: 92

Task: Ok, now "CCCS(=O)(=O)c1nc(NC2CC2)cc(-c2ccc3c(ccn3C3CC(C)(C)NC(C)(C)C3)c2)n1"
Output: 94

Task: Another compound to look at: O=C(Cc1ccc(-c2ccc(OCCN3CCOCC3)cc2)cn1)NCc1ccccc1 [TIRBANIBULIN]
Output: 87

* * *

- Test system: Fibroblast
- EXPERIMENT NOTES: Multiplex assay against human fibroblast
- Assay type: toxicity, cell-based
- SETUP CONDITIONS: 12 h, 10 µM, compound concentration 10 uM, replicate 2
OBSERVABLE: Population Fragmented Nuclei (%)
Please give a number only; it is taken to be in %.

COMPOUND | STUDY TARGET | ENDPOINT UNIT | Population Fragmented Nuclei (%)
CCN1CCN(c2ccc(Nc3cc(N(C)C(=O)Nc4c(Cl)c(OC)cc(OC)c4Cl)ncn3)cc2)CC1 | Fibroblast | % | 60
Cn1nc(C(F)(F)F)cc1-c1cnc(N2CCc3cc(S(=O)(=O)Nc4c(F)cc(Cl)cc4F)cc(N4CCCC4=O)c32)nc1 | Fibroblast | % | 62
COc1cc(N2CCN(C)CC2)ccc1Nc1ncc2c(n1)N(C)c1ccccc1C(=O)N2C | Fibroblast | % | 15
CCCn1c(=O)c2[nH]c(-c3cnn(Cc4cccc(C(F)(F)F)c4)c3)nc2n(CC)c1=O | Fibroblast | % | 17
O=C(Nc1cccnn1)N1CCC(=Cc2cccc(Oc3ccc(C(F)(F)F)cn3)c2)CC1 | Fibroblast | % | 50
COC(=N)c1nc2ccc3ncnc(Nc4ccc(OC)cc4F)c3c2s1 | Fibroblast | % | 57
CN1C2CCC1CC(OC(c1ccc(F)cc1)c1ccc(F)cc1)C2.Cl (configuration not stated) | Fibroblast | % | 8
Cl.O=c1c2cccn2c2ccccc2n1CCCN1CCC(c2ccc(Cl)cc2)CC1 | Fibroblast | % | 21
CCOC(=O)c1c(C)[nH]c2ccc3c(c12)CN1CCc2cc(OC)ccc2C1O3 (configuration not stated) | Fibroblast | % | 2
COCC(=O)NC/C=C/c1ccc2ncnc(Nc3ccc(Oc4ccc(C)nc4)c(C)c3)c2c1 | Fibroblast | % | 18

--- query ---
Task: Query: Population Fragmented Nuclei (%); subject: "CCCS(=O)(=O)c1nc(NC2CC2)cc(-c2ccc3c(ccn3C3CC(C)(C)NC(C)(C)C3)c2)n1"
Output: 75
